Data provenance is patent US7939546B2.

Task for the reader: assign each of the following molecules its reported % DNMT1 protein level remaining at 100 µM.
Target: DNMT1 (Homo sapiens, UniProt P26358)
Sequence (P26358 whole entry): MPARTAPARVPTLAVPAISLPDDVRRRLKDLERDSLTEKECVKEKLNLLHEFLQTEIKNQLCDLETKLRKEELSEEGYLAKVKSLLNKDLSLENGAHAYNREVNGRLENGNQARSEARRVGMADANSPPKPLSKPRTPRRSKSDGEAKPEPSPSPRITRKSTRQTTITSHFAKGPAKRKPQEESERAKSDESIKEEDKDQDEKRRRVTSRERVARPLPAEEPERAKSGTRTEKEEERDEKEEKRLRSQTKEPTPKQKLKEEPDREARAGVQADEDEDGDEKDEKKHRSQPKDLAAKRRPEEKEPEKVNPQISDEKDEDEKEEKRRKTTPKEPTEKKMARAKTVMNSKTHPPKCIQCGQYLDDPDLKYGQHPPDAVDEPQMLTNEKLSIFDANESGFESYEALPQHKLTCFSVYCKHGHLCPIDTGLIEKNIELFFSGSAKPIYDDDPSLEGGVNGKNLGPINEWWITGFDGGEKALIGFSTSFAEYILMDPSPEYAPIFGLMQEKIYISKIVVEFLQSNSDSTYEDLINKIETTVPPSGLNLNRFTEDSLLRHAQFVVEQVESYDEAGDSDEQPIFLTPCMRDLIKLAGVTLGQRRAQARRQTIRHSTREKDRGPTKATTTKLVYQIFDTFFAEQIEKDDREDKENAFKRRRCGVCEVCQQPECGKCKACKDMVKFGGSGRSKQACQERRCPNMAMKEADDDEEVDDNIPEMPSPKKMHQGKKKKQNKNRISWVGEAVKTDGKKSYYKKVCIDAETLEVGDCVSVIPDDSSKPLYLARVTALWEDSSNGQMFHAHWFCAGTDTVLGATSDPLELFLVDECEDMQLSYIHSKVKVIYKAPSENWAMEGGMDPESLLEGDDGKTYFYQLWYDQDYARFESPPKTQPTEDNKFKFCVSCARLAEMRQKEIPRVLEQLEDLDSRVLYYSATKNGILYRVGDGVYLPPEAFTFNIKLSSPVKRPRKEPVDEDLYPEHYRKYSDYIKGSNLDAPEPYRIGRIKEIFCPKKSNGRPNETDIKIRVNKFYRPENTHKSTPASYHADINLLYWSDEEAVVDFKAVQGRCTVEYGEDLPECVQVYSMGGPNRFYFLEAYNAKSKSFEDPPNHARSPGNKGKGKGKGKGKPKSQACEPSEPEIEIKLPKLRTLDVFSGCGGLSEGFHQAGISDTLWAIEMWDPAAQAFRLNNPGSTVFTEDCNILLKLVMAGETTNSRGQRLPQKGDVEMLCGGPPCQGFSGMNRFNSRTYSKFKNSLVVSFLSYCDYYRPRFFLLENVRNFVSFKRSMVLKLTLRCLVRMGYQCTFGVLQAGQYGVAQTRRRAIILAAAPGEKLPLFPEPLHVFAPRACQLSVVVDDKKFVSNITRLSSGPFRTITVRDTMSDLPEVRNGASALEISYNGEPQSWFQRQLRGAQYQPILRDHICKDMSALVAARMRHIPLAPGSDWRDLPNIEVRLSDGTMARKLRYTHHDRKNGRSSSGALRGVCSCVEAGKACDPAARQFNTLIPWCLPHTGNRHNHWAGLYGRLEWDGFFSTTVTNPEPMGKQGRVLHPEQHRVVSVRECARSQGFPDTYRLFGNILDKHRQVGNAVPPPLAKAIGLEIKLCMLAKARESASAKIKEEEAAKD
Assay: Selective depletion of DNMT1 by Western blot in treated HCT116 cells
Format: cell-based
Parameters: Protein extracts (equivalent to 100 μg) were isolated from HCT116 cells; endogenous in cells; host or cells: HCT116
Conditions: HCT-116, 100 μM
Where a name gives a salt, the structure may show the parent alone.
Answers are plain numbers, in %.

# count of solved cases: 3
[in] Please tell me: % DNMT1 protein level remaining at 100 µM of C[n+]1ccc(Nc2ccc(C(=O)Nc3ccc(Nc4ccnc5ccc(N)cc45)cc3)cc2)cc1 , system DNMT1 (Homo sapiens, UniProt P26358)?
[out] 130

[in] Please tell me: % DNMT1 protein level remaining at 100 µM of C[n+]1ccc(Nc2ccc(NC(=O)c3ccc(Nc4ccnc5ccc([N+](=O)[O-])cc45)cc3)cc2)cc1 [Cpd. G, hydrochloride] , system DNMT1 (Homo sapiens, UniProt P26358)?
[out] 100

[in] Please tell me: % DNMT1 protein level remaining at 100 µM of CN(C)c1ccc2nccc(Nc3ccc(C(=O)Nc4ccc(Nc5cc[n+](C)cc5)cc4)cc3)c2c1 , system DNMT1 (Homo sapiens, UniProt P26358)?
[out] 142

More entries:
[in] Please tell me: % DNMT1 protein level remaining at 100 µM of C/C(=N\N=C(N)N)c1ccc(NC(=O)c2ccc(Nc3ccnc4ccc([N+](=O)[O-])cc34)cc2)cc1 [Cpd. I, hydrochloride] , system DNMT1 (Homo sapiens, UniProt P26358)?
[out] 48

====

Task for the reader: assign each of the following compounds its reported % DNMT1 protein level remaining at 10 µM.
Molecular target: DNMT1 (Homo sapiens, UniProt P26358)
Assay: Selective depletion of DNMT1 by Western blot in treated HCT116 cells
Type: cell-based
Set-up: Protein extracts (equivalent to 100 μg) were isolated from HCT116 cells; endogenous in cells; host or cells: HCT116
Settings: HCT-116, 10 μM
Counter-ions that a name gives are not always drawn.
Answers are plain numbers, in %.

# count of solved cases: 5
[in] Requested field: % DNMT1 protein level remaining at 10 µM. Item: Cc1cc(Nc2cccc(C(=O)Nc3ccc(Nc4ccnc5ccc(N)cc45)cc3)c2)nc(N)n1 [RR3, dihydrochloride]
[out] 100

[in] Requested field: % DNMT1 protein level remaining at 10 µM. Item: Cc1cc(Nc2ccc(NC(=O)c3ccc(Nc4ccnc5ccc([N+](=O)[O-])cc45)cc3)cc2)nc(N)n1 [Cpd. H, hydrochloride]
[out] 25

[in] Requested field: % DNMT1 protein level remaining at 10 µM. Item: C[n+]1ccc(Nc2ccc(C(=O)Nc3ccc(Nc4ccnc5ccc(N)cc45)cc3)cc2)cc1
[out] 152

[in] Requested field: % DNMT1 protein level remaining at 10 µM. Item: CN(C)c1ccc2nccc(Nc3ccc(C(=O)Nc4ccc(Nc5cc[n+](C)cc5)cc4)cc3)c2c1
[out] 150

[in] Requested field: % DNMT1 protein level remaining at 10 µM. Item: C[n+]1ccc(Nc2ccc(NC(=O)c3ccc(Nc4ccnc5ccc(N)cc45)cc3)cc2)cc1
[out] 145

Look at each compound and report its % DNMT1 protein level remaining at 10 µM.
1. C/C(=N\N=C(N)N)c1ccc(NC(=O)c2ccc(Nc3ccnc4ccc([N+](=O)[O-])cc34)cc2)cc1 [Cpd. I, hydrochloride]
2. Cc1cc(Nc2ccc(C(=O)Nc3ccc(Nc4ccnc5ccc(N)cc45)cc3)cc2)nc(N)n1 [Cpd. GG3, dihydrochloride]

[out]
[80, 10]
